- Target Of Assay: T1, soluble KDR extracellular domain (ECD) (Calbiochem) (human, UniProt P35968 20-764)
- T1 construct: extracellular domain; Bought protein; also called KDR-ECD; VEGF Receptor 2 D1-7, Cat. #676490
- T1 sequence (P35968 20-764): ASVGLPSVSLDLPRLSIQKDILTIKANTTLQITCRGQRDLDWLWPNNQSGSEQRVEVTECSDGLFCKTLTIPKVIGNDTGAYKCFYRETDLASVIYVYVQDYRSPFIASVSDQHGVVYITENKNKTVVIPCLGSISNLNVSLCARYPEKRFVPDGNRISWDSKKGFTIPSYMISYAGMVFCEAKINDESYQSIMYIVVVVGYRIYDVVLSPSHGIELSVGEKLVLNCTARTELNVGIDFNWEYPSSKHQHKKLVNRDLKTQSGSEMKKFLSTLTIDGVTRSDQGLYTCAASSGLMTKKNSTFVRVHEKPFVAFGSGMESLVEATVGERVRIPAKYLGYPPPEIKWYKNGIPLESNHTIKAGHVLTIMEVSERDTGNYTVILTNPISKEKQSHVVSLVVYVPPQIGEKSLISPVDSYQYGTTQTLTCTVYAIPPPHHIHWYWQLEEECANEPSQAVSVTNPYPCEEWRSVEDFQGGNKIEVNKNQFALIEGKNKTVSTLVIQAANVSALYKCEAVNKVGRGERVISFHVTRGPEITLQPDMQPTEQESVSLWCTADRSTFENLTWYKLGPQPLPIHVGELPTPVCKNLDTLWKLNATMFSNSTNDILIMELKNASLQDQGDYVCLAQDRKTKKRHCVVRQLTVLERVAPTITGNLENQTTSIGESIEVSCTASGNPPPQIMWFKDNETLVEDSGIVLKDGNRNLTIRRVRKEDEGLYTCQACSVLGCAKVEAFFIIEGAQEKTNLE
- Measurement Description: High Antigen ELISA, KDR coat 500 ng/mL, supernatant 1:6075
- Description: ELISA plates were coated with a greater amount of KDR (at 500 ng/mL) in comparison with the Limited Antigen Quantitation assay described below. Sample containing antibody (Ab) was titrated on the KDR-coated ELISA plates and was incubated overnight at 4° C. to allow Ab binding to approach equilibrium. […] The high KDR concentration and the overnight incubation limited the effect of Ab affinity, allowing quantitation of the relative amount of KDR-specific Ab present in each sample.
Readout: ELISA reading
Simply state the number, no unit and no words.

Form: binder = 33E1 (antibody, V domains shown, Fully human mAb from XenoMouse hybridoma, tested as hybridoma supernatant) VH: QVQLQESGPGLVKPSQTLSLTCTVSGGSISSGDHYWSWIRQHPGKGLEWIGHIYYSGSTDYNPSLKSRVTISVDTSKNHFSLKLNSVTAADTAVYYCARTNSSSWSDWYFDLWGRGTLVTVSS VL: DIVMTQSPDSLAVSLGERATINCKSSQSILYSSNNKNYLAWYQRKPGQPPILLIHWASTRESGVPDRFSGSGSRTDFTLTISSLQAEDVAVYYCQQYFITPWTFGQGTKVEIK ; ELISA reading = 0.98

Record 21H6 (antibody, V domains shown, Fully human mAb from XenoMouse hybridoma, tested as hybridoma supernatant) VH: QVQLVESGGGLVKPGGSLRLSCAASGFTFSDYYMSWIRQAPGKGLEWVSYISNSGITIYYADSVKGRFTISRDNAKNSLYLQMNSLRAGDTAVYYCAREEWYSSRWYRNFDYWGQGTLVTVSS VL: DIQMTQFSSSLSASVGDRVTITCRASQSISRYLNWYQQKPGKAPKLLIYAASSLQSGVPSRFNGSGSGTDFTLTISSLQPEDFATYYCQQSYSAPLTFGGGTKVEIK , field ELISA reading: 1.17

Item: 1G6 (antibody, V domains shown, Fully human mAb from XenoMouse hybridoma, tested as hybridoma supernatant) VH: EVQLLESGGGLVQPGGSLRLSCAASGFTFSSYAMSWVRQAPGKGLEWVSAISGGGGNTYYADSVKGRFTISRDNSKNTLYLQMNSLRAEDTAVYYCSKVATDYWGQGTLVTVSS VL: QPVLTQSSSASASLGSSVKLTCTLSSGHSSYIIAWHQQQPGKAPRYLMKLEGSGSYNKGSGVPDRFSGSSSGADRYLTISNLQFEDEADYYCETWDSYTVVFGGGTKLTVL | ELISA reading: 0.34
